Provenance of the data: the supplement of paper PMC12783771

B1: library; a variant is named by its letters at X, in order (parent)
chain: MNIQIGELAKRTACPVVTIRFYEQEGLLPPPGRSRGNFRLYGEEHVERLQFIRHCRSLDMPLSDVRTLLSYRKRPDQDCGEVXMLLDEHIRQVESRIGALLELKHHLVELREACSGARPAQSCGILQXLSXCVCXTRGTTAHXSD

# Variants of: B1
# assayProtocol: sfGFP reporter fluorescence (15 h) (µM FITC); higher = stronger transcriptional activation
# conditionInfo: library round: Round 2; ligand: 30 µM Zn
Recorded measurements of sfGFP reporter fluorescence, one per entry
Just the number, please, no unit after it.

Previously resolved entries follow.
variantIdentifier: SGDVP K104V
sfGFP reporter fluorescence: 1.3

variantIdentifier: TIDDP D64K K104V
sfGFP reporter fluorescence: 2.62

variantIdentifier: TGDDP D64T R111A
sfGFP reporter fluorescence: 2.38

variantIdentifier: TGDRW
sfGFP reporter fluorescence: 0.205

variantIdentifier: MGSDA
sfGFP reporter fluorescence: 0.0513

variantIdentifier: TGCDI
sfGFP reporter fluorescence: 0.0916

variantIdentifier: NGADY L107C
sfGFP reporter fluorescence: 3.25

variantIdentifier: TGDDW L126I
sfGFP reporter fluorescence: 0.0773

variantIdentifier: NSEPP
sfGFP reporter fluorescence: 1.79

variantIdentifier: NGCDP M60L P61N D64K K104V
sfGFP reporter fluorescence: 1.39

Let us examine a further case.
For record SGMAP the listed sfGFP reporter fluorescence is 0.586
